Molecular target: Epidermal growth factor receptor (Homo sapiens, UniProt P00533, L858R/T790M)
Assay: Inhibition of EGFR T790M/L858R mutant (unknown origin) incubated for 40 mins in presence of Mg/ATP mix by [gamma p33]-ATP based scintillation counting method
Readout kind: IC50 (µM)
Use µM as the unit, but write only the number.

Consider c1ccc(COc2cccc(-c3nc4sccn4c3-c3ccncn3)c2)cc1 . Its measured IC50 is 8.56

----------
IC50 values by entry
System: MDA-MB-468
Assay: Antiproliferative activity against human MDA-MB-468 cells assessed as cell growth inhibition measured after 48 hrs by SRB assay
Assay type: functional, cell-based
Details: MDA-MB-468, 48 h

// worked examples, IC50 included
# Compound, IC50
measured = [
    ("C=CC(=O)N1CCC[C@@H](n2nc(-c3ccc(Oc4ccccc4)cc3)c3c(N)ncnc32)C1 [IBRUTINIB]", "0.03 µM"),
    ("CS(=O)(=O)c1nccc(-c2c(-c3cccc(OCc4ccccc4)c3)nc3sccn23)n1", "1.04 µM"),
]

Consider CS(=O)(=O)c1nccc(-c2c(-c3cccc(OCc4ccc(F)cc4)c3)nc3sccn23)n1 . Its measured IC50 is 1.8 µM

----------
Molecular target: Epidermal growth factor receptor (Homo sapiens, UniProt P00533, T790M)
Sequence (P00533 25-1210 T790M limits assumed): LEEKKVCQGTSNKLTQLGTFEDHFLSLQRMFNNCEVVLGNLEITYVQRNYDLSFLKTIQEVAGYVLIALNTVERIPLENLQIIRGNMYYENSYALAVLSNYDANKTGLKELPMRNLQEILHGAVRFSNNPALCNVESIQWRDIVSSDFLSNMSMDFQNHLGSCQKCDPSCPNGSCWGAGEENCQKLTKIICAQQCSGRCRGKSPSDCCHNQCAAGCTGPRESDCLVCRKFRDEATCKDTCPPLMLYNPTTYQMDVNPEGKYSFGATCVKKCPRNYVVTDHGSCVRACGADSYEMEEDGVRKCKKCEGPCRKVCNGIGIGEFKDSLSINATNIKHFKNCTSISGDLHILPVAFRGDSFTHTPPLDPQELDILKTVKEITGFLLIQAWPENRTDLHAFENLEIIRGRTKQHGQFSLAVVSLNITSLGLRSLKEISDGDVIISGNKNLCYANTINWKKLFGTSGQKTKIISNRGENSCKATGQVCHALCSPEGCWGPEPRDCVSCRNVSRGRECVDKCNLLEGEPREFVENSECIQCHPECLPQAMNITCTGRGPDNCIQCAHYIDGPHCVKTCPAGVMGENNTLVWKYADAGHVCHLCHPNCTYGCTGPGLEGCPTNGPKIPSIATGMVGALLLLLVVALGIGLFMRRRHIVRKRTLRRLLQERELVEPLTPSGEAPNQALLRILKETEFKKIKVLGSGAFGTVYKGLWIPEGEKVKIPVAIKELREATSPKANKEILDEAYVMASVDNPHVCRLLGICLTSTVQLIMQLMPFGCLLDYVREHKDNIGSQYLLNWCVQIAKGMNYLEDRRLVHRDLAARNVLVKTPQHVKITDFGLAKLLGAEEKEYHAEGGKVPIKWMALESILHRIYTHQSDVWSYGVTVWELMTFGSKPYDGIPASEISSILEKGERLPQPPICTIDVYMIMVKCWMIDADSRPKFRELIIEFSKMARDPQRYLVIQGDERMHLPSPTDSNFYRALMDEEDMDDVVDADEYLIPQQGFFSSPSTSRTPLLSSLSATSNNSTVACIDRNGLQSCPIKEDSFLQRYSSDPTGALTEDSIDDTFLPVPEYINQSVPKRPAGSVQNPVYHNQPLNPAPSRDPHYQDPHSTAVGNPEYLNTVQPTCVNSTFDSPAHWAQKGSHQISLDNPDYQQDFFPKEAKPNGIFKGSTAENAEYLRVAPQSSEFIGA
Experiment: Inhibition of EGFR- T790M mutant (unknown origin) incubated for 40 mins in presence of Mg/ATP mix by [gamma p33]-ATP based scintillation counting method
Readout kind: IC50 (nM)
Use nM as the unit, but write only the number.

Fill in: Epidermal growth factor receptor (Homo sapiens, UniProt P00533, T790M) IC50 for c1ccc(COc2cccc(-c3nc4sccn4c3-c3ccncn3)c2)cc1 = 380

----------
System: SK-MEL-5
Test: Antiproliferative activity against human SK-MEL-5 cells assessed as cell growth inhibition measured after 48 hrs by SRB assay
Type: functional, cell-based
Settings: SK-MEL-5, 48 h
Readout kind: IC50 (nM)
Use nM as the unit, but write only the number.

# Compound, Unit annotation, IC50
data = [
    ("CS(=O)(=O)c1nccc(-c2c(-c3cccc(OCc4ccc(F)cc4)c3)nc3sccn23)n1", "nM", 1540),
    ("CS(=O)(=O)c1nccc(-c2c(-c3cccc(OCc4ccccc4)c3)nc3sccn23)n1", "nM", 510),
    ("C=CC(=O)N1CCC[C@@H](n2nc(-c3ccc(Oc4ccccc4)cc3)c3c(N)ncnc32)C1 [IBRUTINIB]", "nM", 6310),
]

Consider CNC(=O)c1cc(Oc2ccc(NC(=O)Nc3ccc(Cl)c(C(F)(F)F)c3)cc2)ccn1 [SORAFENIB] . Its measured IC50 is 2510

----------
Target: Receptor tyrosine-protein kinase erbB-4 (Homo sapiens, UniProt Q15303)
Sequence (Q15303 whole entry): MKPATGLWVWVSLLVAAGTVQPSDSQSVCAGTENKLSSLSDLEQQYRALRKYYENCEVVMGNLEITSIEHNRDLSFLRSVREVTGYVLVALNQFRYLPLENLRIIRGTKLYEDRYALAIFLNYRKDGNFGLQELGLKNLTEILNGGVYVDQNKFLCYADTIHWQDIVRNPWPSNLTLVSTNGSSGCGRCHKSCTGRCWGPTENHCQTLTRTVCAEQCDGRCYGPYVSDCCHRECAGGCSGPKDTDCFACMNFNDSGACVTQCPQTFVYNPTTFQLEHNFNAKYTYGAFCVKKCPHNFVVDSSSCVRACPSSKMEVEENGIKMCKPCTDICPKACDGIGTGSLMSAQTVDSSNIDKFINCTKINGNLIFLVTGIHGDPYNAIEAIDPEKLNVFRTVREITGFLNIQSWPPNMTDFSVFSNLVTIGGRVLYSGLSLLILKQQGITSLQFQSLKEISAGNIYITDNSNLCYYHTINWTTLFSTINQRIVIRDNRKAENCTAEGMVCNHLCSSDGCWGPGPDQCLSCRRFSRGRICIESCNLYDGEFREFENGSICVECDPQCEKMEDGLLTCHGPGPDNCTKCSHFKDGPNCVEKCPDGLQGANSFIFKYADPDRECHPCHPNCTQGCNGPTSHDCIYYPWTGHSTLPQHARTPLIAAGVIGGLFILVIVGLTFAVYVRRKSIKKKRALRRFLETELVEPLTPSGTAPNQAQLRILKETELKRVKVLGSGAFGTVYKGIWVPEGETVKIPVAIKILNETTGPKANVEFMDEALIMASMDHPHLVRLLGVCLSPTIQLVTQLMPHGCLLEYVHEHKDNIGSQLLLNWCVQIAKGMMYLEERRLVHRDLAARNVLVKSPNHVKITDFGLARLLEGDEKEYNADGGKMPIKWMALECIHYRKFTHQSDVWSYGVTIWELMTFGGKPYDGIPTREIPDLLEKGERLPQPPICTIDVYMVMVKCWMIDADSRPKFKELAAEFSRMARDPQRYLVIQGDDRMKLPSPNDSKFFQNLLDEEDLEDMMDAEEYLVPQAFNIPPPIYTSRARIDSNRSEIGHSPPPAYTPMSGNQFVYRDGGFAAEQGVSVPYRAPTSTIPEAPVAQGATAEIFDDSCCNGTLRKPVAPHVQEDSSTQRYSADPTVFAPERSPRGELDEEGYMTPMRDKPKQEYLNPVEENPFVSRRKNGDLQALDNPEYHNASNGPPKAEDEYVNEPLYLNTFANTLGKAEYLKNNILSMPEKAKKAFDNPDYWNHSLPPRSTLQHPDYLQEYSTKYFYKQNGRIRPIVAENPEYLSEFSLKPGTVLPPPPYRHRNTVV
Assay: Inhibition of ErbB4 in human T47D cells assessed as suppression of neuregulin 1-induced autophosphorylation incubated for 90 mins by sandwich ELISA
Assay type: cell-based
Readout kind: pIC50
Convention used: pIC50 is expressed as -log10 of the molar concentration.

Consider CS(=O)(=O)c1nccc(-c2c(-c3cccc(OCc4ccccc4)c3)nc3sccn23)n1 . Its measured pIC50 is 8.48

----------
Target: hERG (KCNH2) (Homo sapiens)
Sequence (Q12809 whole entry): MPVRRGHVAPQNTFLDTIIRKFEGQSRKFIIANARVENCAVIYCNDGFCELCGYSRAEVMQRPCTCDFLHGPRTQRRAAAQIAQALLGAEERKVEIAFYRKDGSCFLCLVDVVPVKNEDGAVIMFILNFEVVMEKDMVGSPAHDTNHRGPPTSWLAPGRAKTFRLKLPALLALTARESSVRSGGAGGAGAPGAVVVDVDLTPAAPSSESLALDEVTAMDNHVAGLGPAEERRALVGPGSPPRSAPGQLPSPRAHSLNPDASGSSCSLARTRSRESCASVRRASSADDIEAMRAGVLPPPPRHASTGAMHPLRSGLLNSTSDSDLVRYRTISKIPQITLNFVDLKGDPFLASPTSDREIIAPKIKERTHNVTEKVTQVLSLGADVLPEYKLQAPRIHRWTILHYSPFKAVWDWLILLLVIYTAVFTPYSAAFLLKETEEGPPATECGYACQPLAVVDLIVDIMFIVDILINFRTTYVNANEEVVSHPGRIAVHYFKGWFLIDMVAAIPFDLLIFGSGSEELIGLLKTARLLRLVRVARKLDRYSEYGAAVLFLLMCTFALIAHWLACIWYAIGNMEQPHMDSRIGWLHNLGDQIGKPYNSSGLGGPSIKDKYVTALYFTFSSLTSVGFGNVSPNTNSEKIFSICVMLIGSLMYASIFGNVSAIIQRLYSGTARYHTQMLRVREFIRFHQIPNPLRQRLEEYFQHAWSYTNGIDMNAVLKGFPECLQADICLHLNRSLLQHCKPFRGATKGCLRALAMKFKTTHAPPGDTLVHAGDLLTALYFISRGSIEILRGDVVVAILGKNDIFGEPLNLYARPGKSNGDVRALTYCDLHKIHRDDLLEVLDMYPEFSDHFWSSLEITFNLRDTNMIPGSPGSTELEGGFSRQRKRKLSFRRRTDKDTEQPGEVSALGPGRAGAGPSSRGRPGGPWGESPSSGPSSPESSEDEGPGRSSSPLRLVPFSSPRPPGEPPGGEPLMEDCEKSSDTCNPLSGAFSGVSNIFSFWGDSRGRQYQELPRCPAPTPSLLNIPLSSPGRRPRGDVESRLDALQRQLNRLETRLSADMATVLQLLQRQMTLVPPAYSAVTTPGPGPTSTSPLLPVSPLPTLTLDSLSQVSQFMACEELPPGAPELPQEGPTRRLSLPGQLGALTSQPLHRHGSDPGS
Assay: Safety index, ratio of test compound IC50 to E-4031 IC50 for inhibition of human ERG incubated for 3 hrs by competitive fluorescence tracer binding based assay
Settings: read-out: Ratio IC50
Readout kind: selectivity ratio at 3 h
Please reply with the number alone, leaving off any unit.

# Mol, selectivity ratio at 3 h
rows = [
    ("CS(=O)(=O)c1nccc(-c2c(-c3cccc(OCc4ccccc4)c3)nc3sccn23)n1", 513),
]

// below: selectivity ratio at 3 h requested for another compound
Consider c1ccc(COc2cccc(-c3nc4sccn4c3-c3ccncn3)c2)cc1 . Its measured selectivity ratio at 3 h is 530

----------
pIC50 values by entry
Target: Serine/threonine-protein kinase B-raf (Homo sapiens, UniProt P15056, V600E)
Assay: Inhibition of BRAF V600E mutant (unknown origin) incubated for 40 mins in presence of Mg/ATP mix by [gamma p33]-ATP based scintillation counting method
Convention used: pIC50 is expressed as -log10 of the molar concentration.

# Mol, Reported value
records = [
    ("c1ccc(COc2cccc(-c3nc4sccn4c3-c3ccncn3)c2)cc1", 5.80),
]

// below: pIC50 requested for another compound
Consider CS(=O)(=O)c1nccc(-c2c(-c3cccc(OCc4ccccc4)c3)nc3sccn23)n1 . Its measured pIC50 is 4.88

----------
Biological target: Epidermal growth factor receptor (Homo sapiens, UniProt P00533, L861Q)
Experiment: Inhibition of EGFR- L861Q mutant (unknown origin) incubated for 40 mins in presence of Mg/ATP mix by [gamma p33]-ATP based scintillation counting method
Readout kind: IC50 (µM)
Use µM as the unit, but write only the number.

Consider c1ccc(COc2cccc(-c3nc4sccn4c3-c3ccncn3)c2)cc1 . Its measured IC50 is 4.35

----------
Biological target: Receptor tyrosine-protein kinase erbB-4 (Homo sapiens, UniProt Q15303)
Test: Inhibition of ErbB4 (unknown origin) incubated for 40 mins in presence of Mg/ATP mix by [gamma p33]-ATP based scintillation counting method
Readout kind: IC50 (nM)
Use nM as the unit, but write only the number.

# Mol, Unit annotation, IC50
records = [
    ("c1ccc(COc2cccc(-c3nc4sccn4c3-c3ccncn3)c2)cc1", "nM", 17.7),
]

// below: IC50 requested for another compound
Consider CS(=O)(=O)c1nccc(-c2c(-c3cccc(OCc4ccccc4)c3)nc3sccn23)n1 . Its measured IC50 is 15.2

----------
Target: Mitogen-activated protein kinase 10 (Homo sapiens, UniProt P53779)
Sequence (P53779 whole entry): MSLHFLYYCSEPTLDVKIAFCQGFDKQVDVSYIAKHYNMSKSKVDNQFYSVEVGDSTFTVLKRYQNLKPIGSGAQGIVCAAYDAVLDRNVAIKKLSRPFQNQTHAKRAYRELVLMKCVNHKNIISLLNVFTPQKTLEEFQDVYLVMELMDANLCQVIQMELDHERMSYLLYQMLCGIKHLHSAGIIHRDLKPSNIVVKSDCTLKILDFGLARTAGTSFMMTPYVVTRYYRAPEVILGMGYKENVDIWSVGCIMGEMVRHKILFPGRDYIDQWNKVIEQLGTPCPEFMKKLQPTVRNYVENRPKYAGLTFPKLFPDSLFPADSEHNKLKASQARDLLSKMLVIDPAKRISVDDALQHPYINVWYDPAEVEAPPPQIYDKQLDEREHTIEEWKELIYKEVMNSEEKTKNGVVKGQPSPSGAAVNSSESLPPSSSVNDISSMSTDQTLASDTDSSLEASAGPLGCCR
Assay: Inhibition of JNK3 (unknown origin) incubated for 40 mins in presence of Mg/ATP mix by [gamma p33]-ATP based scintillation counting method
Readout kind: IC50 (µM)
Use µM as the unit, but write only the number.

Fill in: Mitogen-activated protein kinase 10 (Homo sapiens, UniProt P53779) IC50 for CS(=O)(=O)c1nccc(-c2c(-c3cccc(OCc4ccccc4)c3)nc3sccn23)n1 = 5.2

----------
Biological target: Dual specificity mitogen-activated protein kinase kinase 2 (Homo sapiens, UniProt P36507)
Sequence (P36507 whole entry): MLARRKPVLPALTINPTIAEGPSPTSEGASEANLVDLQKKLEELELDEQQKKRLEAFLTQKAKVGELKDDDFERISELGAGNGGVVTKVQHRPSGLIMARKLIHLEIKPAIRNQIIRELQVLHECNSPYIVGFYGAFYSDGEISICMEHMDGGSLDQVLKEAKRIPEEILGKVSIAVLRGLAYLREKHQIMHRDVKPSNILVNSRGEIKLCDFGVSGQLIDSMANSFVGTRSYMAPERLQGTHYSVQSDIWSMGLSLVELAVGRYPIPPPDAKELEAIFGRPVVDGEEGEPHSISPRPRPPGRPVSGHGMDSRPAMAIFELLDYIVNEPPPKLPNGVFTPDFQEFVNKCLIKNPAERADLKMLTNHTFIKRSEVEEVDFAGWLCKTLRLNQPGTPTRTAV
Assay: Inhibition of MEK2 (unknown origin) incubated for 40 mins in presence of Mg/ATP mix by [gamma p33]-ATP based scintillation counting method
Readout kind: pIC50
Convention used: pIC50 is expressed as -log10 of the molar concentration.

Fill in: Dual specificity mitogen-activated protein kinase kinase 2 (Homo sapiens, UniProt P36507) pIC50 for c1ccc(COc2cccc(-c3nc4sccn4c3-c3ccncn3)c2)cc1 = 5.49

----------
Test: Cytotoxicity against human WI-38 cells assessed as cell growth inhibition at 10 uM measured after 48 hrs by SRB assay relative to control
Format: cell-based
Readout kind: inhibition at 48 h, 10 µM (%)
Use % as the unit, but write only the number.

# Mol, Unit annotation, inhibition at 48 h, 10 µM
measured = [
    ("CS(=O)(=O)c1nccc(-c2c(-c3cccc(OCc4ccccc4)c3)nc3sccn23)n1", "%", 56.4),
]

// below: inhibition at 48 h, 10 µM requested for another compound
Consider CS(=O)(=O)c1nccc(-c2c(-c3cccc(OCc4ccc(F)cc4)c3)nc3sccn23)n1 . Its measured inhibition at 48 h, 10 µM is 21.6

----------
Molecular target: Voltage-gated inwardly rectifying potassium channel KCNH2 (Homo sapiens)
Sequence (Q12809 whole entry): as the sequence (Q12809 whole entry) above
Readout kind: IC50 (µM)
Use µM as the unit, but write only the number.

# Mol, Readout kind, Reported value
records = [
    ("CS(=O)(=O)c1nccc(-c2c(-c3cccc(OCc4ccccc4)c3)nc3sccn23)n1", "IC50", 12.4),
]

// below: IC50 requested for another molecule
Fill in: Voltage-gated inwardly rectifying potassium channel KCNH2 (Homo sapiens) IC50 for c1ccc(COc2cccc(-c3nc4sccn4c3-c3ccncn3)c2)cc1 = 12.8
